Measured values drawn from patent US10961215B2 for this set.

target: GST tagged LXRalpha LBD (ligand binding domain) (Homo sapiens); construct: purchased Invitrogen pv4655; test: LanthaScreen TR-FRET Liver X Receptor Coactivator Assay, LXR alpha-LBD (co-activator recruitment; IP and % Emax relative to T0901317); assay type: biochemical; conditions: efficacy at max dose in relation to reference T0901317, LXR alpha-LBD; read-out: LXR alpha actiivty at max dose (%)
Sequence (Q13133 209-447 limits assumed): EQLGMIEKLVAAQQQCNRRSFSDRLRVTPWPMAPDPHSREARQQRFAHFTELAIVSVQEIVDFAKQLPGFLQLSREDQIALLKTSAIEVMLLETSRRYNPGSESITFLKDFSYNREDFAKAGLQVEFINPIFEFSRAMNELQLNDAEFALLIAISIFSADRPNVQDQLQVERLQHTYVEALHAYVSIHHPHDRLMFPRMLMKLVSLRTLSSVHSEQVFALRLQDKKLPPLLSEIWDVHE
ASSAY READOUT: Emax (%)
Output spec: scalar in %, unitless text.

Example entries begin here.
CN(C)C(=O)c1ccc(N2CCC(CCCN(C)C(=O)[C@](O)(c3cc(Cl)cc(Cl)c3)C(F)(F)F)CC2)nc1Cl = 0
COc1cccc([C@@](O)(C(=O)N(C)CC[C@H]2CC23CCN(c2ccc(C(=O)NC(C)C)c(Cl)c2)CC3)C(F)(F)F)c1 = 35
CN(C)C(=O)c1ccc(N2CCC(CCCN(C)C(=O)[C@]3(c4cccc(Cl)c4)CCCO3)CC2)nc1Cl = 0
CN(C)C(=O)c1ccc(N2CCC([C@H]3C[C@H]3CN(C)C(=O)[C@](O)(c3cccc(OC(F)(F)F)c3)C(F)(F)F)CC2)nc1Cl = 15
COc1cccc([C@@](O)(C(=O)N(C)CCCC2(C)CCN(c3ccc(C(=O)N(C)C)c(Cl)c3)CC2)C(F)(F)F)c1 = 0

Now look at this entry.
Briefly, Emax measured for "COc1cccc([C@@](O)(C(=O)N(C)CC[C@@H]2CC23CCN(c2ccc(C(=O)N(C)C(C)C)c(Cl)c2)CC3)C(F)(F)F)c1" : 0

###

Entries and their Emax values follow.
Biological target: GST tagged LXRbeta LBD (ligand binding domain) (Homo sapiens, UniProt P55055)
Construct: purchased Invitrogen pv4658.pps
Sequence (P55055 222-460 limits assumed): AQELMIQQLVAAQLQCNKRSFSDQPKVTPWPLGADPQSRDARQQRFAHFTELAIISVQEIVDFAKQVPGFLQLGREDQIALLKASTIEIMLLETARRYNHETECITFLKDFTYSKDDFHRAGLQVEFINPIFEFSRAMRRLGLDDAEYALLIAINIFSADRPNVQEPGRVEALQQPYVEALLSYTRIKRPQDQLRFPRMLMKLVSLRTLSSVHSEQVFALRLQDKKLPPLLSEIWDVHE
Assay: LanthaScreen TR-FRET Liver X Receptor Coactivator Assay, LXR beta-LBD (co-activator recruitment; IP and % Emax relative to T0901317)
Assay type: biochemical
Settings: efficacy at max dose in relation to reference T0901317, LXR beta-LBD; read-out: LXR beta actiivty at max dose (%)
Excerpt: […]
Note: unit % is implicit; provide only the numeric part.

Reference set (2 entries):
CC(C)C(O)(C(=O)NCCCC1CCN(c2ccc(C(=O)N(C)C)c(Cl)c2)CC1)C(F)(F)F (stereo not shown) [Example 5-2] = 80
CCN(CC)C(=O)c1ccc(N2CCC(CCCN(C)C(=O)[C@](O)(c3cccc(OC)c3)C(F)(F)F)CC2)cc1Cl [Example 4-9] = 40

So, COc1cccc([C@@](O)(C(=O)N(C)CC[C@H]2CC23CCN(c2ccc(C(=O)N(C)C(C)C)c(Cl)c2)CC3)C(F)(F)F)c1 [Example 7-14] ? Its Emax was 55

Data point: CN(C)C(=O)c1ccc(N2CCC(CCCNC(=O)C3(c4ccccc4)CCC3)CC2)nc1Cl [Example 5-16] ; Emax = 83

Query CC(C)Oc1cccc(C(O)(C(=O)N(C)CCCC2CCN(c3ccc(C(=O)N(C)C)c(Cl)n3)CC2)C(F)(F)F)c1 (stereo not shown) [Example 1-32] yields Emax of 48

Measured Emax, CN(C)C(=O)c1ccc(N2CCC(CCCNC(=O)C(C)(C)c3ccccc3)CC2)cc1Cl [Example 5-4] : 72

Notebook: COc1cccc([C@@](O)(C(=O)N(C)CC[C@H]2CC23CCN(c2ccc(C(=O)N(C)C)c(Cl)n2)CC3)C(F)(F)F)c1 [Example 7-15] , Emax read as 58

Emax recorded for this molecule, COc1cccc([C@@](O)(C(=O)N(C)CCCC2CCN(c3ccc(C(=O)N(C)C)c(Cl)n3)CC2)C(F)(F)F)c1 [Example 1-9] , is 69

The value of Emax measured for the molecule CN(C)C(=O)c1ccc(N2CCC([C@H]3C[C@H]3CN(C)C(=O)[C@](O)(c3cccc(OC(F)(F)F)c3)C(F)(F)F)CC2)nc1Cl [Example 15-4] turned out to be 50

Reported Emax of CN(C)C(=O)c1ccc(N2CCC(CCCN(C)C(=O)[C@@](O)(c3cccc(C4CC4)c3)C(F)(F)F)CC2)nc1Cl [Example 1-34] : 49

In plain terms, COc1cccc([C@@](O)(C(=O)N(C)CCCC2CCN(c3ccc(C(=O)N(C)CCn4cncn4)c(Cl)n3)CC2)C(F)(F)F)c1 [Example 2-14] has a documented Emax of 67

Item: CN(C)C(=O)c1ccc(N2CCC(CCCN(C)C(=O)[C@@](N)(c3ccccc3)C(F)(F)F)CC2)nc1Cl [Example 1-30] | Emax: 47

The value of Emax measured for the molecule CN(C)C(=O)c1ccc(N2CCC(CCCNC(=O)C3(c4ccccc4)CCCC3)CC2)nc1Cl [Example 5-15] turned out to be 83
